target: purified VDAC1 (Homo sapiens, UniProt P21796); assay: Glass-bound peptide array probed with purified VDAC1 and anti-VDAC1 antibodies; assay type: binding; set-up: key: +: low; ++: medium; +++: high; conditions: glass-bound peptide array incubated 4 h with purified VDAC1 (64 nM); antibody against VDAC1 amino acids 150-250; chemiluminescence
Sequence (P21796 whole entry, species assumed, the tested form may be a part): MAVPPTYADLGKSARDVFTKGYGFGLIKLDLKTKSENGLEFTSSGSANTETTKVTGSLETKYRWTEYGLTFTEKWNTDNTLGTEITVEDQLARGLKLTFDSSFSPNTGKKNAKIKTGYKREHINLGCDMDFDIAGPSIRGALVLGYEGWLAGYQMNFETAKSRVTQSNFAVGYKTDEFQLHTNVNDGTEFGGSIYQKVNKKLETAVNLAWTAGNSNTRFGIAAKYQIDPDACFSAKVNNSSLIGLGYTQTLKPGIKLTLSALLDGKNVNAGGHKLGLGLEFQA
assayEndpoint: Spot intensity, detected using anti-VDAC1 internal sequence

recordSequence	measuredResult
RERLLGWIQDQGGWGLPLAESLKRL [1B12, array peptide from BAX]	+
EQGVLSFWRGNLANVIRYFPTQALN [1F19, array peptide from ANT3]	+
DELYRQSLEIISRYLREQATGAKDT [2D23, array peptide from Mcl-1]	+
NMKLTRAQFEGIVTDLIRRTIAPCQ [2O9, array peptide from HSP-70]	++
QLTLENLQMLPESEDEESYDTESEF [2G2]	++

Please find the next sequence below.
Request: Report Spot intensity, detected using anti-VDAC1 internal sequence for AAAATTVAWYQVSPLAARLLYPYLA [1H10, array peptide from TSPO] please.
Response: ++
